- RUN DESCRIPTION: Test B: Cytotoxicity Assay
- Type: cell-based
- CONDITION SET: human, uninfected MT-4 cells, same protocol as Test A
REPORTED METRIC: CC50 at 5 days (µM)
Give bare numbers, in µM.

Here are 2 compounds together with their reported answers.
# COMPOUND, UNIT NAME, VALUE REPORTED
measured = [
    ("Cn1nc(NS(N)(=O)=O)c2cccc(-c3ccc(C#CC(C)(C)O)nc3[C@H](Cc3cc(F)cc(F)c3)NC(=O)Cn3nc(C(F)F)c4c3C(F)(F)[C@@H]3C[C@H]43)c21 [Compound 54]", "µM", 8.08),
    ("Cn1nc(NS(C)(=O)=O)c2c(Cl)ccc(-c3ccc(C#CC(C)(O)CO)nc3[C@H](Cc3cc(F)cc(F)c3)NC(=O)Cn3nc(C(F)(F)F)c4c3C(F)(F)[C@@H]3C[C@H]43)c21 (stereo partly drawn) [Compound 151]", "µM", 25.3),
]

What CC50 at 5 days value was documented for this compound, CC(C)(O)C#Cc1ccc(-c2ccc3nnc(N)n3c2)c([C@H](Cc2cc(F)cc(F)c2)NC(=O)Cn2nc(C(F)F)c3c2C(F)(F)[C@@H]2C[C@H]32)n1 [Compound 105E] ?
31.5

* * *

- RUN DESCRIPTION: Test B: Cytotoxicity Assay
- Format: cell-based
- CONDITION SET: human, uninfected MT-4 cells, same protocol as Test A
Classes based on CC50 at 5 days: lower: < 9 µM; middle: ≥ 9 µM and < 20 µM; upper: ≥ 20 µM

Into which category would you place COc1ccc(-c2ccc(C#CC(C)(C)O)nc2[C@H](Cc2cc(F)cc(F)c2)NC(=O)Cn2nc(C(F)F)c3c2C(F)(F)[C@@H]2C[C@H]32)c2c1c(N)nn2C [Compound 114G] ?
middle

Lookup Cn1nc(NS(C)(=O)=O)c2c(Cl)ccc(-c3ccc(C#CC(O)(CF)CF)nc3[C@H](Cc3cc(F)cc(F)c3)NC(=O)Cn3nc(C(F)F)c4c3C(F)(F)[C@@H]3C[C@H]43)c21 [Compound 170]
middle

Lookup CC(C)(O)C#Cc1ccc(-c2ccc(Cl)c(C(N)=O)c2)c([C@H](Cc2cc(F)cc(F)c2)NC(=O)Cn2nc(C(F)(F)F)c3c2C(F)(F)[C@@H]2C[C@H]32)n1 [Compound 80]
lower

Lookup CNc1nnc2c(-c3ccc(C#CC(C)(C)O)nc3[C@H](Cc3cc(F)cc(F)c3)NC(=O)Cn3nc(C(F)F)c4c3C(F)(F)[C@@H]3C[C@H]43)cccn12 [Compound 76F]
upper

Lookup CC(C)(O)C#Cc1ccc(-c2ccc(Cl)c3c(NS(C)(=O)=O)n[nH]c23)c([C@H](Cc2cc(F)cc(F)c2)NC(=O)Cn2nc(C(F)(F)F)c3c2C(F)(F)[C@@H]2C[C@H]32)n1 [Compound 109]
upper

Lookup Cn1nc(N)c2cccc(-c3ccc(C#CC(C)(C)O)nc3[C@H](Cc3cc(F)cc(F)c3)NC(=O)Cn3nc(C(F)F)c4c3C(F)(F)CCC4(F)F)c21 [Compound 31]
lower

Lookup Cn1nc(NS(C)(=O)=O)c2cccc(-c3cnc(C#CC(C)(C)O)nc3[C@H](Cc3cc(F)cc(F)c3)NC(=O)Cn3nc(C(F)F)c4c3C(F)(F)CCC4(F)F)c21 [Compound 40]
lower

Lookup Cn1nc(NS(C)(=O)=O)c2c(Cl)ccc(-c3ccc(C#CC(C)(C)O)nc3[C@H](Cc3cc(F)cc(F)c3)NC(=O)Cn3nc(C(F)(F)F)c4c3COCC4)c21 [Compound 190]
middle

Lookup COCCC(=O)Nc1nn(C)c2c(-c3ccc(C#CC(C)(C)O)nc3[C@H](Cc3cc(F)cc(F)c3)NC(=O)Cn3nc(C(F)F)c4c3C(F)(F)[C@@H]3C[C@H]43)ccc(Cl)c12 [Compound 85]
lower

Lookup CC(C)(O)C#Cc1ccc(-c2ccc3[nH]nc(N)c3c2)c([C@H](Cc2cc(F)cc(F)c2)NC(=O)Cn2nc(C(F)(F)F)c3c2C(F)(F)[C@@H]2C[C@H]32)n1 [Compound 46]
middle

Lookup Cn1nc(NC(N)=O)c2c(Cl)ccc(-c3ccc(C#CC(C)(C)O)nc3[C@H](Cc3cc(F)cc(F)c3)NC(=O)Cn3nc(C(F)F)c4c3C(F)(F)[C@@H]3C[C@H]43)c21 [Compound 92]
lower

Lookup Cn1nc(NS(C)(=O)=O)c2c(Cl)ccc(-c3ccc(-c4ncccn4)nc3[C@H](Cc3cc(F)cc(F)c3)NC(=O)Cn3nc(C(F)(F)F)c4c3C(F)(F)[C@@H]3C[C@H]43)c21 [Compound 176]
middle

* * *

- RUN DESCRIPTION: Test B: Cytotoxicity Assay
- Type: cell-based
- CONDITION SET: human, uninfected MT-4 cells, same protocol as Test A
Classes based on CC50 at 5 days: range 1 (below 8 µM), range 2 (8 µM to below 9 µM), range 3 (9 µM or more)

// below: answered compounds
# COMPOUND, ASSIGNED CATEGORY
records = [
    ("Cn1nc(NC(=O)CO)c2c(Cl)ccc(-c3ccc(C#CC(C)(C)O)nc3[C@H](Cc3cc(F)cc(F)c3)NC(=O)Cn3nc(C(F)F)c4c3C(F)(F)[C@@H]3C[C@H]43)c21", "range 2"),
    ("Cn1nc(NS(C)(=O)=O)c2c(Cl)ccc(-c3ccc(-c4cnc(C(C)(C)C)s4)nc3[C@H](Cc3cc(F)cc(F)c3)NC(=O)Cn3nc(C(F)(F)F)c4c3C(F)(F)[C@@H]3C[C@H]43)c21", "range 3"),
]

Into which category would you place Cc1n[nH]c2cccc(-c3ccc(C#CC(C)(C)O)nc3[C@H](Cc3cc(F)cc(F)c3)NC(=O)Cn3nc(C(F)(F)F)c4c3C(F)(F)[C@@H]3C[C@H]43)c12 ?
range 1

Lookup CC(C)(O)C#Cc1ncc(-c2ccc(F)c(C(N)=O)c2)c([C@H](Cc2cc(F)cc(F)c2)NC(=O)Cn2nc(C(F)(F)F)c3c2C(F)(F)[C@@H]2C[C@H]32)n1 [Compound 23B]
range 1

Lookup CC(C)C(=O)Nc1nn(C)c2c(-c3ccc(C#CC(C)(C)O)nc3[C@H](Cc3cc(F)cc(F)c3)NC(=O)Cn3nc(C(F)F)c4c3C(F)(F)[C@@H]3C[C@H]43)ccc(Cl)c12
range 1

Lookup Cn1nc(NC(=O)N2CCOCC2)c2cccc(-c3ccc(C#CC(C)(C)O)nc3[C@H](Cc3cc(F)cc(F)c3)NC(=O)Cn3nc(C(F)(F)F)c4c3C(F)(F)[C@@H]3C[C@H]43)c21
range 3

* * *

- RUN DESCRIPTION: Test B: Cytotoxicity Assay
- Assay type: cell-based
- CONDITION SET: human, uninfected MT-4 cells, same protocol as Test A
REPORTED METRIC: CC50 at 5 days (µM)
Numbers only, in µM.

Please look at the items below and tell me CC50 at 5 days for each one, in order.
1. CNc1nn(C)c2c(-c3ccc(C#CC(C)(C)O)nc3[C@H](Cc3cc(F)cc(F)c3)NC(=O)Cn3nc(C(F)F)c4c3C(F)(F)[C@@H]3C[C@H]43)cccc12 [Compound 68G]
2. COc1cc(-c2ccc(Cl)c3c(NS(C)(=O)=O)nn(C)c23)c([C@H](Cc2cc(F)cc(F)c2)NC(=O)Cn2nc(C(F)F)c3c2C(F)(F)[C@@H]2C[C@H]32)nc1C#CC(C)(C)O [Compound 139B]
3. Cn1nc(N)c2cccc(-c3ccc(C#CC(C)(C)O)nc3[C@H](Cc3cc(F)cc(F)c3)NC(=O)Cn3nc(C(F)F)c4c3C(F)(F)[C@@H]3C[C@H]43)c21
4. CCNS(=O)(=O)Nc1nn(C)c2c(-c3ccc(C#CC(C)(C)O)nc3[C@H](Cc3cc(F)cc(F)c3)NC(=O)Cn3nc(C(F)(F)F)c4c3C(F)(F)[C@@H]3C[C@H]43)cccc12

9.64
15.4
9.18
8.03

* * *

- RUN DESCRIPTION: Test B: Cytotoxicity Assay
- Format: cell-based
- CONDITION SET: human, uninfected MT-4 cells, same protocol as Test A
For each entry below, report its CC50 at 5 days value.
Numbers only, in µM.

Here are 5 compounds together with their reported answers.
# COMPOUND, CC50 at 5 days (µM)
data = [
    ("CNCC(=O)Nc1nn(C)c2c(-c3ccc(C#CC(C)(C)O)nc3[C@H](Cc3cc(F)cc(F)c3)NC(=O)Cn3nc(C(F)F)c4c3C(F)(F)[C@@H]3C[C@H]43)ccc(Cl)c12", 6.53),
    ("Cn1nc(N)c2c(C#N)ccc(-c3ccc(C#CC(C)(C)O)nc3[C@H](Cc3cc(F)cc(F)c3)NC(=O)Cn3nc(C(F)F)c4c3C(F)(F)[C@@H]3C[C@H]43)c21 [Compound 77E]", 11.8),
    ("Cn1nc(NS(C)(=O)=O)c2c(Cl)ccc(-c3ccc(C#CC(C)(C)O)nc3[C@H](Cc3cc(F)cc(F)c3)NC(=O)Cn3nc(C4(O)CC4)c4c3CCCC4)c21 [Compound 156E]", 25.6),
    ("CC(C)(O)C#Cc1ccc(-c2ccc3n[nH]c(=O)n3c2)c([C@H](Cc2cc(F)cc(F)c2)NC(=O)Cn2nc(C(F)(F)F)c3c2C(F)(F)[C@@H]2C[C@H]32)n1", 10),
    ("Cn1nc(NS(C)(=O)=O)c2c(Cl)ccc(-c3ccc(C#CCOCCO)nc3[C@H](Cc3cc(F)cc(F)c3)NC(=O)Cn3nc(C(F)(F)F)c4c3C(F)(F)[C@@H]3C[C@H]43)c21", 18.6),
]

Please look at the items below and tell me CC50 at 5 days for each one, in order.
1. Cn1nc(NC(=O)C(F)F)c2c(Cl)ccc(-c3ccc(C#CC(C)(C)O)nc3[C@H](Cc3cc(F)cc(F)c3)NC(=O)Cn3nc(C(F)F)c4c3C(F)(F)[C@@H]3C[C@H]43)c21
2. Cn1nc(NS(C)(=O)=O)c2c(Cl)ccc(-c3ccc(C#CC(C)(C)O)nc3[C@H](Cc3cc(F)cc(F)c3)NC(=O)Cn3nc(N)c4c3C(F)(F)[C@@H]3C[C@H]43)c21 [Compound 148B]
3. O=C(Cn1nc(C(F)F)c2c1C(F)(F)CCC2(F)F)N[C@@H](Cc1cc(F)cc(F)c1)c1nc(-c2c[nH]nn2)ccc1-c1cnc2[nH]ccc2c1 [Compound 16C]
4. Cn1nc(NS(C)(=O)=O)c2c(Cl)ccc(-c3ccc(C#CC(C)(C)O)nc3[C@H](Cc3cc(F)cc(F)c3)NC(=O)Cc3noc4ccccc34)c21
5. Cn1nc(NCC#N)c2c(Cl)ccc(-c3ccc(C#CC(C)(C)O)nc3[C@H](Cc3cc(F)cc(F)c3)NC(=O)Cn3nc(C(F)F)c4c3C(F)(F)[C@@H]3C[C@H]43)c21
6. Cn1nc(NS(C)(=O)=O)c2c(Cl)ccc(-c3ccc(C#CC(C)(C)O)nc3[C@H](Cc3cc(F)cc(F)c3)NC(=O)Cn3nc(C(F)(F)F)cc3C3CC3)c21
7. Cn1nc(NS(C)(=O)=O)c2c(Cl)ccc(-c3ccc(C#CC(C)(O)CF)nc3[C@H](Cc3cc(F)cc(F)c3)NC(=O)Cn3nc(C(F)(F)F)c4c3C(F)(F)[C@@H]3C[C@H]43)c21 (some centres unmarked)
8. CNc1cc(-c2ccc(Cl)c3c(NS(C)(=O)=O)nn(C)c23)c([C@H](Cc2cc(F)cc(F)c2)NC(=O)Cn2nc(C(F)F)c3c2C(F)(F)[C@@H]2C[C@H]32)nc1C#CC(C)(C)O [Compound 182L]

1: 7.6; 2: 23.3; 3: 3.67; 4: 23.7; 5: 4.81; 6: 10.1; 7: 11.9; 8: 9.83

Please look at the items below and tell me CC50 at 5 days for each one, in order.
1. CC(C)(O)C#Cc1ccc(-c2ccc(Cl)n3c(N)nnc23)c([C@H](Cc2cc(F)cc(F)c2)NC(=O)Cn2nc(C(F)F)c3c2C(F)(F)[C@@H]2C[C@H]32)n1 [Compound 106E]
2. CC(C)(O)C#Cc1ccc(-c2ccc(F)c(C(N)=O)c2)c([C@H](Cc2cc(F)cc(F)c2)NC(=O)Cn2nc(C(F)F)c3c2C(F)(F)CCC3(F)F)n1

[12.4, 12.2]

Ref: patent US20140303164A1
